method-description: Selectivity for thrombin over trypsin
In this section, each of the compounds is paired with its reported Selectivity ratio.

Completed entries (count: 3):
compound: CN1CC(C)(COc2ccc(C(=N)N)cc2)Oc2cc(NC(=O)c3ccccc3)ccc21 (stereo not given)
result: 0.3
//
compound: COC(=O)C(Cc1ccccc1)C(=O)Nc1ccc2c(c1)OC(C)(COc1ccc(C(=N)N)cc1)CN2C (stereo not given)
result: 1.7
//
compound: CCOC(=O)C(Cc1ccccc1)C(=O)Nc1ccc2c(c1)N(C)CC(C)(COc1ccc(C(=N)N)cc1)O2 (stereo not given)
result: 0.6

Data request: Give the reported Selectivity ratio for this compound. CCOC(=O)C(C(=O)Nc1ccc2c(c1)OC(OCc1ccc(C(=N)N)cc1)C(=O)N2C)c1ccccc1 (stereo not given)
Data returned: 1.5

Data request: Give the reported Selectivity ratio for this compound. CN1C(=O)C(OCc2ccc(C(=N)N)cc2)Oc2cc(C(=O)N(CC(=O)O)c3ccccc3)ccc21 (stereo not given)
Data returned: 9.4

###

Test system: Platelet
method-description: Inhibition of ADP-induced platelet aggregation in human platelet rich plasma at 50 uM
Type: functional
result-type: inhibition at 50 µM
Write the numeric value and follow it with the unit.

compound: CCOC(=O)CCC(=O)Nc1ccc2c(c1)OC(C)(COc1ccc(C(=N)N)cc1)CN2C (centres undefined)
inhibition at 50 µM: 15%

compound: CCOC(=O)CN(Cc1ccccc1)c1ccc2c(c1)N(C)CC(C)(COc1ccc(C(=N)N)cc1)O2 (centres undefined)
inhibition at 50 µM: 13%

compound: CCOC(=O)C(=O)N(Cc1ccccc1)c1ccc2c(c1)N(C)CC(C)(COc1ccc(C(=N)N)cc1)O2 (centres undefined)
inhibition at 50 µM: 24%

compound: CN1C(=O)C(OCc2ccc(C(=N)N)cc2)Oc2cc(C(=O)Nc3ccccc3)ccc21 (centres undefined)
inhibition at 50 µM: 19%

compound: CN1CC(C)(COc2ccc(C(=N)N)cc2)Oc2cc(NC(=O)c3ccccc3)ccc21 (centres undefined)
inhibition at 50 µM: 21%

compound: CN1CC(C)(COc2ccc(C(=N)N)cc2)Oc2cc(N(Cc3ccccc3)C(=O)C(=O)O)ccc21 (centres undefined)
inhibition at 50 µM: 26%

compound: CCOC(=O)CN(C(=O)c1ccccc1)c1ccc2c(c1)OC(C)(COc1ccc(C(=N)N)cc1)CN2C (centres undefined)
inhibition at 50 µM: 21%

compound: CCOC(=O)C(=O)N(Cc1ccccc1)c1ccc2c(c1)OC(C)(COc1ccc(C(=N)N)cc1)CN2C (centres undefined)
inhibition at 50 µM: 21%

Data request: Give the reported inhibition at 50 µM for this compound. CCOC(=O)CN(Cc1ccccc1)c1ccc2c(c1)OC(C)(COc1ccc(C(=N)N)cc1)CN2C (centres undefined)
Data returned: 19%

###

target-or-system: Integrin alpha-IIb/beta-3 (Homo sapiens, UniProt P05106+P08514)
Sequence (P05106 27-788 limits assumed): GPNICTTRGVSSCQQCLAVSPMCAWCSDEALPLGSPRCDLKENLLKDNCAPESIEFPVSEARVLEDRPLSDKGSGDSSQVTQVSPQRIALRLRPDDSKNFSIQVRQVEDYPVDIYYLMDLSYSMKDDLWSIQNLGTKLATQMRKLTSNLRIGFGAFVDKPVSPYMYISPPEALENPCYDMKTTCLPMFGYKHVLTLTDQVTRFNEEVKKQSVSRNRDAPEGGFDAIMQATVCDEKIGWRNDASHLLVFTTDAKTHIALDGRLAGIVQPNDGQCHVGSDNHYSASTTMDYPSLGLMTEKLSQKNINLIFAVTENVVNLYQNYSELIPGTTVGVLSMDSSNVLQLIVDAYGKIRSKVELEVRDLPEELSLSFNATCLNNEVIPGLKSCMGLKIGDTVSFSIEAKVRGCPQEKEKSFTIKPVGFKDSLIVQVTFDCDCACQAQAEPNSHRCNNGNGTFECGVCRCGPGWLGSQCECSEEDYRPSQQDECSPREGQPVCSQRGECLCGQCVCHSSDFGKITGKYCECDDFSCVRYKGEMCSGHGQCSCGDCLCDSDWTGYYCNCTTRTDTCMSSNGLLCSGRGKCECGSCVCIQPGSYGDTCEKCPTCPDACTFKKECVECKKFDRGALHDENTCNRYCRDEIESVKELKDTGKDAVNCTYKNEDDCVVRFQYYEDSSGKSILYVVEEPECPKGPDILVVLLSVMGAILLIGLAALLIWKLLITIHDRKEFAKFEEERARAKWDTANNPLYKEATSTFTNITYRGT
Sequence (P08514 32-887 limits assumed): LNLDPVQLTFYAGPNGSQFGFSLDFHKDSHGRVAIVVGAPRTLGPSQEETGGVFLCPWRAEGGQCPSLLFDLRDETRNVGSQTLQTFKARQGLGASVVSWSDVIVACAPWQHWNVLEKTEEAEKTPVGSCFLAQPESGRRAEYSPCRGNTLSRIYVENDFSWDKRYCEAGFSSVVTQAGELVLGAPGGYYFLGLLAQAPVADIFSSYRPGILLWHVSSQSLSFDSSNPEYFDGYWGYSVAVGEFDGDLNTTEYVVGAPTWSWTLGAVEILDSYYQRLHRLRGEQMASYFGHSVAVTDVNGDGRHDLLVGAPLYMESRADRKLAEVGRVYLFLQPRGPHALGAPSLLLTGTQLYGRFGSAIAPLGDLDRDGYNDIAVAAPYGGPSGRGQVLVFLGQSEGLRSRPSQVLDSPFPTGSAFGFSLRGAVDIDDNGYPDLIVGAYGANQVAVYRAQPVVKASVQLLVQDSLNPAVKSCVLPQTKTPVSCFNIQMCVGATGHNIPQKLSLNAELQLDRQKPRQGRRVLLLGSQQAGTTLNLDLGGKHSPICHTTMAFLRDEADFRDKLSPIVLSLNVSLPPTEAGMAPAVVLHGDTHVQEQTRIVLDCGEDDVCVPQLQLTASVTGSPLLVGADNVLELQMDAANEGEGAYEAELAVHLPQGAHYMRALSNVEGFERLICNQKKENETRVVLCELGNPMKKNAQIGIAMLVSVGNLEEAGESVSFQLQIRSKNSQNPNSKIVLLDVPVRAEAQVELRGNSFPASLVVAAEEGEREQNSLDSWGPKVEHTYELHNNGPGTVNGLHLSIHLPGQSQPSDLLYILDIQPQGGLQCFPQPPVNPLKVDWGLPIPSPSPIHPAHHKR
Sequence (P08514 891-1039 limits assumed): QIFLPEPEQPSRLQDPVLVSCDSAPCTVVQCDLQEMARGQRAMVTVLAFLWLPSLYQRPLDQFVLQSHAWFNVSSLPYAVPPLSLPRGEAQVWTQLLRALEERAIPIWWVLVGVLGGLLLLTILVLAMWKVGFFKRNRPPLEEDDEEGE
method-description: Inhibition of fibrinogen binding to human platelet GPIIb/IIIa receptor
In this section, each of the compounds is paired with its reported pIC50.
On this scale, pIC50 is minus log10 of a concentration expressed in M (mol/L).

Completed entries (count: 4):
compound: CCOC(=O)CN(Cc1ccccc1)c1ccc2c(c1)N(C)CC(C)(COc1ccc(C(=N)N)cc1)O2 (stereo not drawn)
pIC50: 6.14
--
compound: CCOC(=O)C(Cc1ccccc1)C(=O)Nc1ccc2c(c1)N(C)CC(C)(COc1ccc(C(=N)N)cc1)O2 (stereo not drawn)
pIC50: 4.44
--
compound: CCOC(=O)CCC(=O)N(Cc1ccccc1)c1ccc2c(c1)OC(C)(COc1ccc(C(=N)N)cc1)CN2C (stereo not drawn)
pIC50: 4.53
--
compound: CCOC(=O)C(=O)N(Cc1ccccc1)c1ccc2c(c1)OC(C)(COc1ccc(C(=N)N)cc1)CN2C (stereo not drawn)
pIC50: 5.70

Data request: Give the reported pIC50 for this compound. CN1C(=O)C(OCc2ccc(C(=N)N)cc2)Oc2cc(C(=O)Nc3ccccc3)ccc21 (stereo not drawn)
Data returned: 4.92

Data request: Give the reported pIC50 for this compound. CCOC(=O)CCC(=O)N(Cc1ccccn1)c1ccc2c(c1)OC(C)(COc1ccc(C(=N)N)cc1)CN2C (stereo not drawn)
Data returned: 4.95

Data request: Give the reported pIC50 for this compound. CN1CC(C)(COc2ccc(C(=N)N)cc2)Oc2cc(NC(=O)CCC(=O)O)ccc21 (stereo not drawn)
Data returned: 5.77

Data request: Give the reported pIC50 for this compound. CCOC(=O)C(=O)N(Cc1ccccc1)c1ccc2c(c1)N(C)CC(C)(COc1ccc(C(=N)N)cc1)O2 (stereo not drawn)
Data returned: 5.92

Data request: Give the reported pIC50 for this compound. CN1C(=O)C(OCc2ccc(C(=N)N)cc2)Oc2cc(C(=O)NCCC(=O)O)ccc21 (stereo not drawn)
Data returned: 4.82

Data request: Give the reported pIC50 for this compound. COC(=O)C(Cc1ccccc1)C(=O)Nc1ccc2c(c1)OC(C)(COc1ccc(C(=N)N)cc1)CN2C (stereo not drawn)
Data returned: 5.04

Data request: Give the reported pIC50 for this compound. CN1CC(C)(COc2ccc(C(=N)N)cc2)Oc2cc(NC(=O)c3ccccc3)ccc21 (stereo not drawn)
Data returned: 5.55

Data request: Give the reported pIC50 for this compound. CCOC(=O)CCC(=O)Nc1ccc2c(c1)OC(C)(COc1ccc(C(=N)N)cc1)CN2C (stereo not drawn)
Data returned: 4.85

Data request: Give the reported pIC50 for this compound. CCOC(=O)CN(C(=O)c1ccccc1)c1ccc2c(c1)OC(C)(COc1ccc(C(=N)N)cc1)CN2C (stereo not drawn)
Data returned: 5.75

Data request: Give the reported pIC50 for this compound. CN1C(=O)C(OCc2ccc(C(=N)N)cc2)Oc2cc(C(=O)N[C@@H](CC(=O)O)c3ccccc3)ccc21 (stereo partly drawn)
Data returned: 5.79

###

method-description: Selectivity for thrombin over factor 10a
In this section, each of the compounds is paired with its reported Selectivity ratio.
Form: value (number only, do not type unit).

Completed entries (count: 3):
compound: CN1C(=O)C(OCc2ccc(C(=N)N)cc2)Oc2cc(C(=O)Nc3ccccc3)ccc21 (centres undefined)
numeric-readout: 1.3
//
compound: COC(=O)C(Cc1ccccc1)C(=O)Nc1ccc2c(c1)OC(C)(COc1ccc(C(=N)N)cc1)CN2C (centres undefined)
numeric-readout: 12
//
compound: CCOC(=O)CN(C(=O)c1ccccc1)c1ccc2c(c1)OC(C)(COc1ccc(C(=N)N)cc1)CN2C (centres undefined)
numeric-readout: 47

Data request: Give the reported Selectivity ratio for this compound. CN1C(=O)C(OCc2ccc(C(=N)N)cc2)Oc2cc(C(=O)NCCC(=O)O)ccc21 (centres undefined)
Data returned: 1

Data request: Give the reported Selectivity ratio for this compound. CCOC(=O)C(C(=O)Nc1ccc2c(c1)OC(OCc1ccc(C(=N)N)cc1)C(=O)N2C)c1ccccc1 (centres undefined)
Data returned: 5.1

Data request: Give the reported Selectivity ratio for this compound. CN1C(=O)C(OCc2ccc(C(=N)N)cc2)Oc2cc(C(=O)N(CC(=O)O)c3ccccc3)ccc21 (centres undefined)
Data returned: 28

Data request: Give the reported Selectivity ratio for this compound. CCOC(=O)CCC(=O)N(Cc1ccccc1)c1ccc2c(c1)OC(C)(COc1ccc(C(=N)N)cc1)CN2C (centres undefined)
Data returned: 300

Data request: Give the reported Selectivity ratio for this compound. CN1CC(C)(COc2ccc(C(=N)N)cc2)Oc2cc(NC(=O)CCC(=O)O)ccc21 (centres undefined)
Data returned: 6.6

Data request: Give the reported Selectivity ratio for this compound. CN1CC(C)(COc2ccc(C(=N)N)cc2)Oc2cc(NC(=O)c3ccccc3)ccc21 (centres undefined)
Data returned: 2.4

Data request: Give the reported Selectivity ratio for this compound. CCOC(=O)C(Cc1ccccc1)C(=O)Nc1ccc2c(c1)N(C)CC(C)(COc1ccc(C(=N)N)cc1)O2 (centres undefined)
Data returned: 6

Data request: Give the reported Selectivity ratio for this compound. CCOC(=O)CCC(=O)N(Cc1ccccn1)c1ccc2c(c1)OC(C)(COc1ccc(C(=N)N)cc1)CN2C (centres undefined)
Data returned: 472

Data request: Give the reported Selectivity ratio for this compound. CCOC(=O)CN(C(=O)c1ccc2c(c1)OC(OCc1ccc(C(=N)N)cc1)C(=O)N2C)c1ccccc1 (centres undefined)
Data returned: 11

Data request: Give the reported Selectivity ratio for this compound. CCOC(=O)CN(Cc1ccccc1)c1ccc2c(c1)OC(C)(COc1ccc(C(=N)N)cc1)CN2C (centres undefined)
Data returned: 7

Data request: Give the reported Selectivity ratio for this compound. CCOC(=O)CCC(=O)Nc1ccc2c(c1)OC(C)(COc1ccc(C(=N)N)cc1)CN2C (centres undefined)
Data returned: 4.4

###

target-or-system: Integrin alpha-IIb/beta-3 (Homo sapiens, UniProt P05106+P08514)
method-description: Inhibition of fibrinogen binding to human platelet GPIIb/IIIa receptor
result-type: IC50 (µM)
Note: unit µM is implicit; provide only the numeric part.

Completed entries (count: 3):
compound: CCOC(=O)C(C(=O)Nc1ccc2c(c1)OC(OCc1ccc(C(=N)N)cc1)C(=O)N2C)c1ccccc1 (stereo not given)
target-or-system: Integrin alpha-IIb/beta-3 (Homo sapiens, UniProt P05106+P08514)
IC50 / µM: 2.44
--
compound: CCOC(=O)CN(Cc1ccccc1)c1ccc2c(c1)OC(C)(COc1ccc(C(=N)N)cc1)CN2C (stereo not given)
target-or-system: Integrin alpha-IIb/beta-3 (Homo sapiens, UniProt P05106+P08514)
IC50 / µM: 1.45
--
compound: CCOC(=O)C[C@H](NC(=O)c1ccc2c(c1)OC(OCc1ccc(C(=N)N)cc1)C(=O)N2C)c1ccccc1 (stereo not given in full)
target-or-system: Integrin alpha-IIb/beta-3 (Homo sapiens, UniProt P05106+P08514)
IC50 / µM: 24.6

# ---- query compound ----
Data request: Give the reported IC50 for this compound. CCOC(=O)CN(C(=O)c1ccc2c(c1)OC(OCc1ccc(C(=N)N)cc1)C(=O)N2C)c1ccccc1 (stereo not given)
Data returned: 28.4

Every entry's value here was drawn from ChEMBL document CHEMBL1140066.
